// data source = the supplement of paper PMC10065799

Molecular target: FGFR3 (UniProt P22607)
Sequence (P22607 whole entry, looked up): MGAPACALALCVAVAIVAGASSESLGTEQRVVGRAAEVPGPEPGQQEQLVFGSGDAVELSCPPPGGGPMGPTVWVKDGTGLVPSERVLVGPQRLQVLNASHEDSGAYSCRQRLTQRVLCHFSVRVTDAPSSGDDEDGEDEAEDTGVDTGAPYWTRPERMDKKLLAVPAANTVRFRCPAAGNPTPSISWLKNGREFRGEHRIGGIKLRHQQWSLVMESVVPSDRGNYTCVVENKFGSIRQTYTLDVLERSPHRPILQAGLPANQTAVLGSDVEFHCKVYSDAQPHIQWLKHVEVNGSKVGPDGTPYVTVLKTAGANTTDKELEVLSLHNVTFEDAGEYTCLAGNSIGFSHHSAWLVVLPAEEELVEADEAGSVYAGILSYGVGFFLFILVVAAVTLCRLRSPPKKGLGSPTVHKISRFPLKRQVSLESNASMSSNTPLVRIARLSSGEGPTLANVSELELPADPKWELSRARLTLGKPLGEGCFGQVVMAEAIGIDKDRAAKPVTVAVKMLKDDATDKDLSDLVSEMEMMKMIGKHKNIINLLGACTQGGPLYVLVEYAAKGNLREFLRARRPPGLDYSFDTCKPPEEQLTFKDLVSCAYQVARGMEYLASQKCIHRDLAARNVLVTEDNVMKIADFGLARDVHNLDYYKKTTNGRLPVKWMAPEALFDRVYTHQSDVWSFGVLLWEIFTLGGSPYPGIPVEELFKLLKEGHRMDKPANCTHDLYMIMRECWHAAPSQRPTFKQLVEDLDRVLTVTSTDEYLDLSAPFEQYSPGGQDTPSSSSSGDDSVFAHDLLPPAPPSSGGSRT
Assay: phosphorylation enrichment, bacterial display (enrichment ratio); higher = better substrate or ligand; peptides without Tyr show the background;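 further: 11-residue human phosphosite peptides and single-mutation variants displayed on the E. coli surface, counted by deep sequencing, each peptide's frequency after selection divided by its frequency in the unselected input library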;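 further: frequency after pTyr selection over input frequency; kinase dosed for 20-30% of maximal phosphorylation in three min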
Catalogue of sequences with associated phosphorylation enrichment

// solved cases for phosphorylation enrichment follow
- seq: "AQVDTYCRHNY [HLA-DRB1_Y107_A103Q]"
  measurement type: "phosphorylation enrichment"
  result: 0.679
- seq: "VKPENYWRLDI [VHL_Y175_R176W]"
  measurement type: "phosphorylation enrichment"
  result: 0.895
- seq: "ENPAKYDDIKK [GAPDH_Y255_K251N]"
  measurement type: "phosphorylation enrichment"
  result: 0.69
- seq: "IVAEFYDNLPH [DEGS1_Y284_A280V_YF]"
  measurement type: "phosphorylation enrichment"
  result: 0.624
- seq: "GEDEPYSEPYA [APBA1_Y183]"
  measurement type: "phosphorylation enrichment"
  result: 0.756
- seq: "SGSWSYNTSTE [SELE_Y24_A21S]"
  measurement type: "phosphorylation enrichment"
  result: 0.768
- seq: "ATVLNYLPKCI [A2M_Y817]"
  measurement type: "phosphorylation enrichment"
  result: 0.649

Here is the next item to consider.
Prompt: Query the reported phosphorylation enrichment for FGFR3 (UniProt P22607); item: CKSVHYDLVFL [COL22A1_Y37]
Response: 0.866

* * *

Target: Jak2 (UniProt O60674)
Sequence (O60674 whole entry, looked up): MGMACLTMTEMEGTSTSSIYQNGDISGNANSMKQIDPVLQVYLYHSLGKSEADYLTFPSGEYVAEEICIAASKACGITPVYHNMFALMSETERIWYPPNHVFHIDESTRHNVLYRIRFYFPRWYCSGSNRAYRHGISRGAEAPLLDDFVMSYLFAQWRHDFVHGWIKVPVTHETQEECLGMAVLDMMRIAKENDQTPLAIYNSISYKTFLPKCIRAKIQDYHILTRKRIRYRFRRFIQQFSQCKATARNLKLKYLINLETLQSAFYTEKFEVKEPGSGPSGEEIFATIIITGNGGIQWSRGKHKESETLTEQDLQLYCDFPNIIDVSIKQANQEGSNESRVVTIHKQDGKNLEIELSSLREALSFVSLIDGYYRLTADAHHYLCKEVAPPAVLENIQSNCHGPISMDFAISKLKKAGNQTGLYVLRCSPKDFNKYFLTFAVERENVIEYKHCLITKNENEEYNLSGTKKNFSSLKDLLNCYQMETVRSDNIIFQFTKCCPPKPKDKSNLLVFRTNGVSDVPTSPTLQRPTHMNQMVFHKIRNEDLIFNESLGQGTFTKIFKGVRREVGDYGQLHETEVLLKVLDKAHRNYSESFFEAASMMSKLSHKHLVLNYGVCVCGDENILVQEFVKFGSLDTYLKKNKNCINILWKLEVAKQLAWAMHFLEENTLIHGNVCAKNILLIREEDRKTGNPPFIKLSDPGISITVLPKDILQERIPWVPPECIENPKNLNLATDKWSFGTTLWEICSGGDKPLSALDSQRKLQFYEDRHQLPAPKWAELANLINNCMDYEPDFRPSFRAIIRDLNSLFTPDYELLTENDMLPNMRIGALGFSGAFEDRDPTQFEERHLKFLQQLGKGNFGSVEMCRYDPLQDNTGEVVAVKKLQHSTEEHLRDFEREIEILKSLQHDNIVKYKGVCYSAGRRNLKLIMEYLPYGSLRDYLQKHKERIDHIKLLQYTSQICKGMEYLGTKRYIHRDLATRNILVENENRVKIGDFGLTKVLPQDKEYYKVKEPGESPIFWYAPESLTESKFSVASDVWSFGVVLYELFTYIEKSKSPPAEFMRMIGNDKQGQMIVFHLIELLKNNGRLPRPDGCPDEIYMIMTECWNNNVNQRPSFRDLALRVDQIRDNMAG
Experiment: phosphorylation enrichment, bacterial display (enrichment ratio); higher = better substrate or ligand; peptides without Tyr show the background
Catalogue of sequences with associated phosphorylation enrichment
// print number alone

// solved cases for phosphorylation enrichment follow
- seq: "FIGVTYKNEED [PDGFRA_Y993_YF]"
  number: 0.92
- seq: "GINDDHGQLKN [NBN_Y679_Y679H]"
  number: 0.591

Prompt: Given the entry LESTLYESSVV [TRPV4_Y91] , report its measured phosphorylation enrichment.
Response: 2.15

* * *

Catalogue of sequences with associated phosphorylation enrichment
Target: EPHB1 (UniProt P54762)
Sequence (P54762 whole entry, looked up): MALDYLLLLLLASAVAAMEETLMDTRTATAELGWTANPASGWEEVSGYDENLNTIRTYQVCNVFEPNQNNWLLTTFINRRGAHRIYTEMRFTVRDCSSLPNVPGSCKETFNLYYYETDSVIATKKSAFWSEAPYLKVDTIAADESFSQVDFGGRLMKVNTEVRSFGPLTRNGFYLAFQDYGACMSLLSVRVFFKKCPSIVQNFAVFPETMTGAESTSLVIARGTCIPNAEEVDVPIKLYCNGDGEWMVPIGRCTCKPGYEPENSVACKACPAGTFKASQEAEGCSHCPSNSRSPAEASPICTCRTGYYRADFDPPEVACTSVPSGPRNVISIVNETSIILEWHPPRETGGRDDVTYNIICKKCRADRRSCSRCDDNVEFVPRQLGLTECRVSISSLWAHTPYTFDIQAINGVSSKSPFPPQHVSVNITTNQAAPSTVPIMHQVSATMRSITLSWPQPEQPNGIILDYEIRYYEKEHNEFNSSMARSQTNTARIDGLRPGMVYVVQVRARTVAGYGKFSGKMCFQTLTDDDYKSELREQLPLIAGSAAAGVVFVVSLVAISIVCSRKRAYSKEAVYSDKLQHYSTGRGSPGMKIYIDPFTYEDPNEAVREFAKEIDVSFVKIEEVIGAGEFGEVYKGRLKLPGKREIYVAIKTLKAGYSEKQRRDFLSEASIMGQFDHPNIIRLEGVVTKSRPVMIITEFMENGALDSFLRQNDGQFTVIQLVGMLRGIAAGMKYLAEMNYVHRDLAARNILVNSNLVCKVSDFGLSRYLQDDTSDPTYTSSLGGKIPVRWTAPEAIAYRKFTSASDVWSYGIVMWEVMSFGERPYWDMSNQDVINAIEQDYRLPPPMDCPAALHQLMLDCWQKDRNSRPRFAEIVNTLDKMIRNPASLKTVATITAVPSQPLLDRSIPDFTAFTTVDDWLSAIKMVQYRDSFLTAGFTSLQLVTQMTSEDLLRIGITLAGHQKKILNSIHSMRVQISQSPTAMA
Assay: phosphorylation enrichment, bacterial display (enrichment ratio); higher = better substrate or ligand; peptides without Tyr show the background
// print number alone

// solved cases for phosphorylation enrichment follow
- seq: "QKMADYSNKLY [PDPR_Y104]"
  assay target: "EPHB1 (UniProt P54762)"
  measurement type: "phosphorylation enrichment"
  number: 0.492
- seq: "NNPAFYVLEGV [INPPL1_Y987_YF]"
  assay target: "EPHB1 (UniProt P54762)"
  measurement type: "phosphorylation enrichment"
  number: 0.5
- seq: "GGGMFYPLDLF"
  assay target: "EPHB1 (UniProt P54762)"
  measurement type: "phosphorylation enrichment"
  number: 0.503

Here is the next item to consider.
Prompt: Given the entry SIKDKYVTAFY [KCNH2_Y611_L615F] , report its measured phosphorylation enrichment.
Response: 0.488

* * *

Molecular target: Fyn (UniProt P06241)
Sequence (P06241 whole entry, looked up): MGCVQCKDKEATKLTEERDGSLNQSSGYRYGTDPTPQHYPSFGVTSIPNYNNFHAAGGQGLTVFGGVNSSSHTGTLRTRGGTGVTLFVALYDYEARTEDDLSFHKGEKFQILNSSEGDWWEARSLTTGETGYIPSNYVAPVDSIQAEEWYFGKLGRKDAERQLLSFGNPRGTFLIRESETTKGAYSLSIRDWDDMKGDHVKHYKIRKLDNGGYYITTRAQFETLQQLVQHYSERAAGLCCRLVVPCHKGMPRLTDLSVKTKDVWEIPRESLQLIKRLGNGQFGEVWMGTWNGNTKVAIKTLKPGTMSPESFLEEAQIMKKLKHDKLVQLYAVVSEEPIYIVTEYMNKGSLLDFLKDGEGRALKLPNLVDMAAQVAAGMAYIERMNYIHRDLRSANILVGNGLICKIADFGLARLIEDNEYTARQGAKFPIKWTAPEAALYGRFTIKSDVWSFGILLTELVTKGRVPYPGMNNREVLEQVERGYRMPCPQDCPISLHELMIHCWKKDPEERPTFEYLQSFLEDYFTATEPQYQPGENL
Test: phosphorylation enrichment, bacterial display (enrichment ratio); higher = better substrate or ligand; peptides without Tyr show the background
Please enter Condition met where phosphorylation enrichment is greater than or equal to 0.5, and Condition not met where it is lower.

Example entries and their recorded answers appear below.
- seq: "SVVVPYETPEV [TP53_Y220_P222T]"
  assay target: "Fyn (UniProt P06241)"
  class assignment: "Condition met"
- seq: "RPQDGYRIVQH [PTPRT_Y1329]"
  assay target: "Fyn (UniProt P06241)"
  class assignment: "Condition met"
- seq: "PRDSGYSYETI [MAP1B_Y1921_S1917R]"
  assay target: "Fyn (UniProt P06241)"
  class assignment: "Condition not met"

Prompt: Please indicate if the recorded phosphorylation enrichment for TPIYPYLLPKS [PLD2_Y580_T577I] meets or exceeds 0.5.
Response: Condition not met

Prompt: Please indicate if the recorded phosphorylation enrichment for LGKLTYPVGFW [NTHL1_Y177_I176T] meets or exceeds 0.5.
Response: Condition met

Prompt: Please indicate if the recorded phosphorylation enrichment for EIIPFYGMSSY [FNDC3B_Y175_T179S] meets or exceeds 0.5.
Response: Condition met

Prompt: Please indicate if the recorded phosphorylation enrichment for KIVATYRLCSE [DNAH3_Y1586] meets or exceeds 0.5.
Response: Condition not met

Prompt: Please indicate if the recorded phosphorylation enrichment for GLRSFYETSKM [MAGED2_Y449_YF] meets or exceeds 0.5.
Response: Condition not met
